Biological target: 262 bp DNA fragment (MS2F or MS2R) of MS2 plasmid
Assay: DNase I footprinting on MS2 DNA fragment
Format: binding
Conditions: estimated by eye from footprint gel; read-out: DNase IC50 (apparent binding affinity)
Method: The sequence selectivity of the six PBD-pyrrole conjugates (21, 23, 25, 27, 29) was evaluated by standard DNA footprinting on a fragment of MS2 as follows, in accordance with the technique described in Martin, C., et al., (Martin, C., et al., Biochemistry, 44(11), 4135-4147 (2005)) […] Dried gels were stored at room temperature in phosphor storage screens (Molecular Dynamics) for a minimum period of 12 h. […] Data were expressed as the differential cleavage between control and sample lanes. […]
pIC50: −log10 of the molar value.
quantity_kind: pIC50

smiles_code=COC(=O)c1cc(NC(=O)c2cc(NC(=O)c3cc(NC(=O)CCOc4cc5c(cc4OC)C(=O)N4CCC[C@H]4C=N5)cn3C)cn2C)cn1C result=~5.52
smiles_code=COC(=O)c1cc(NC(=O)CCCOc2cc3c(cc2OC)C(=O)N2CCC[C@H]2C=N3)cn1C result="≤ 5.00"

---

system: 170 bp sequence of the human Topo-IIa promoter; test: DNase I footprinting on Topo-IIa promoter (ICB1, ICB2 sites); assay type: binding; details: ICB1 site
quantity_kind: Concentration at which DNA binding is observed, ICB1 (µM)

compound="COC(=O)c1cc(NC(=O)c2nc(NC(=O)c3cc(NC(=O)CCCOc4cc5c(cc4OC)C(=O)N4CCC[C@H]4C=N5)cn3C)cn2C)cn1C [Compound 71]" system_name="170 bp sequence of the human Topo-IIa promoter" number=1
compound="CCOC(=O)c1nc(NC(=O)c2nc(NC(=O)c3cc(NC(=O)CCCOc4cc5c(cc4OC)C(=O)N4CCC[C@H]4C=N5)cn3C)cn2C)cn1C [Compound 91]" system_name="170 bp sequence of the human Topo-IIa promoter" number=5
compound="COC(=O)c1cc(NC(=O)c2csc(NC(=O)c3cc(NC(=O)CCCOc4cc5c(cc4OC)C(=O)N4CCC[C@H]4C=N5)cn3C)n2)cn1C [Compound 73]" system_name="170 bp sequence of the human Topo-IIa promoter" number=5

---

system: calf thymus DNA (CT-DNA); assay: DNA thermal denaturation (melting) studies; assay type: binding; conditions: CT-DNA 100 μM DNAp, compound 20 μM, 37 °C, pH 7.00, 72 hours
Each entry below lists one item and its recorded Induced ΔTm after incubation 72 hours value.
quantity_kind: Induced ΔTm after incubation 72 hours (°C)

compound="COC(=O)c1cc(NC(=O)c2nc(NC(=O)c3nc(NC(=O)CCCOc4cc5c(cc4OC)C(=O)N4CCC[C@H]4C=N5)cn3C)cn2C)cn1C [Compound 75]" number=15.6
compound="CCOC(=O)c1nc(NC(=O)c2nc(NC(=O)CCCOc3cc4c(cc3OC)C(=O)N3CCC[C@H]3C=N4)cn2C)cn1C [Compound 59]" number=11.4
compound="CCOC(=O)c1nc(NC(=O)c2nc(NC(=O)c3cc(NC(=O)CCCOc4cc5c(cc4OC)C(=O)N4CCC[C@H]4C=N5)cn3C)cn2C)cn1C [Compound 91]" number=18.8
compound="CCOC(=O)c1nc(NC(=O)c2nc(NC(=O)c3nc(NC(=O)CCCOc4cc5c(cc4OC)C(=O)N4CCC[C@H]4C=N5)cn3C)cn2C)cn1C [Compound 77]" number=12.1
compound="CCOC(=O)c1csc(NC(=O)c2cc(NC(=O)c3csc(NC(=O)CCCOc4cc5c(cc4OC)C(=O)N4CCC[C@H]4C=N5)n3)cn2C)n1 [Compound 87]" number=7.3
compound="CCOC(=O)c1csc(NC(=O)c2cc(NC(=O)CCCOc3cc4c(cc3OC)C(=O)N3CCC[C@H]3C=N4)cn2C)n1 [Compound 63]" number=10.5
